# Assay Name: Microsomal Stability Assay, mouse liver microsomes
# Format: in vitro ADME
# Experimental Context: mouse liver microsomes, 60 min
Measurement Type: Microsomal Stability Mouse % rem. 60 min

compound="c1cnc2cc(N3CCOCC3)nc(O[C@H]3CC[C@@H](Nc4ncc(OCCN5CCNCC5)cn4)CC3)c2c1 [Compound 70]" data_value="F (% remaining = 25-50%)"
compound="O=C(COc1cnc(N[C@H]2CC[C@@H](Oc3nc(N4CCOCC4)cc4ncccc34)CC2)nc1)N1CCNCC1 [Compound 63]" data_value="F (% remaining = 25-50%)"
compound="NC(=O)COc1cnc(N[C@H]2CC[C@@H](Oc3nc(N4CCOCC4)cc4ncccc34)CC2)nc1 [Compound 60]" data_value="F (% remaining = 25-50%)"

Attribution: patent US20240239790A1
